Consider the following compounds and their measured inhibition at 500 µM readings.
Test system: E. coli imp-
Assay Remarks: microbe, parasite or virus in culture
Format: cell-based
Conditions: Escherichia coli, 24 h, read-out: % inhibition of bacterial growth in culture
Attribute Measured: inhibition at 500 µM

1. Cc1ccc(NC(=O)NCCN(C(=O)C2CC2)C2CCN(C(=O)Cc3ccccc3)C2)cc1 (racemic) :: 35.2%
2. O=C(NCCN(C(=O)CO)C1CCN(C(=O)Cc2ccccc2)C1)c1cnccn1 (racemic) :: 61.1%
3. Cc1ccc(NC(=O)NCCN(CC2CCN(C(=O)CO)CC2)C(=O)c2ccc(N)cc2)cc1 :: 98.7%
4. CC(C)(C)c1ccc(C(=O)N(CCNC(N)=O)CC2CCCN(C(=O)CO)C2)cc1 (racemic) :: 39.5%
5. CC(C)(C)c1ccc(C(=O)N(CCNC(=O)c2cnccn2)CC2CCN(C(=O)Cc3ccccc3)CC2)cc1 :: 93.9%
6. CC(C)(C)c1ccc(C(=O)N(CCNC(=O)c2cnccn2)C2CCN(C(=O)Cc3ccccc3)C2)cc1 (racemic) :: 38.5%
7. CC(C)(C)c1ccc(C(=O)N(CCNC(N)=O)CC2CCN(C(=O)CO)CC2)cc1 :: 96.3%
8. CC(C)(C)c1ccc(C(=O)N(CCNC(=O)c2cnccn2)CC2CCCN(C(=O)Cc3ccccc3)C2)cc1 (racemic) :: 95.7%
